Measured IC50 values are reported for all entries that follow.
subject-of-test: 5-HTT Serotonin Transporter (Rattus norvegicus, UniProt P31652)
Construct: Whole brains from male Wistar rats (125-225 g), excluding cerebellum, are homogenized; from tissue; host or cells: rat whole brain excluding cerebellum, synaptosomal (P2) pellet
Sequence (P31652 whole entry): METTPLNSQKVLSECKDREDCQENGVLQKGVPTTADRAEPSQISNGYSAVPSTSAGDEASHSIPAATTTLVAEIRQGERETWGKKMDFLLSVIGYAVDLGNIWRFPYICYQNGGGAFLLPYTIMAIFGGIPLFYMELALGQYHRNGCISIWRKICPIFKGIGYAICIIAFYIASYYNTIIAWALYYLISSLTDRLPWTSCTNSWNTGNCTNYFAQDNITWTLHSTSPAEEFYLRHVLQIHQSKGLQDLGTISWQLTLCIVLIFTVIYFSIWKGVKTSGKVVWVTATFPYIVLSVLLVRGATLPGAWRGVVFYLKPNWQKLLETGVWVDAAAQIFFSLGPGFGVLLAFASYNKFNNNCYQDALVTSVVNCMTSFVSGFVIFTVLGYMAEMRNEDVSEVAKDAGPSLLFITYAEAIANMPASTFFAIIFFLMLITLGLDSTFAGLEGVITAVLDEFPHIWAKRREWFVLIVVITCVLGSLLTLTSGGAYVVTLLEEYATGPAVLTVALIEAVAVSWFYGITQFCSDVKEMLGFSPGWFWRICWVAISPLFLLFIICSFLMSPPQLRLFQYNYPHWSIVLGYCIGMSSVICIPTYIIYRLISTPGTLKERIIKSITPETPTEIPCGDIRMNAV
method-description: Measurements of [3H]-5-HT uptake into rat cortical synaptosomes
Assay type: biochemical

compound	recorded-measurement
CN[C@H]1C[C@@H](c2c[nH]c3c(F)cccc23)c2ccccc21 [Formula VII]	0.1 to 200 nM
CN[C@@H]1C[C@@H](c2c[nH]c3cc(OC)ccc23)c2ccccc21 [Formula X]	0.1 to 200 nM
CN[C@@H]1C[C@H](c2c[nH]c3c(F)cccc23)c2ccccc21 [Formula VI]	0.1 to 200 nM
CN[C@@H]1C[C@@H](c2c[nH]c3ccccc23)c2ccccc21 [Formula IX]	0.1 to 200 nM

// moving on: another record for IC50
I have this compound here, CN[C@@H]1C[C@@H](c2c[nH]c3ccc(Cl)cc23)c2ccccc21 [Formula VIII] , and I need its recorded IC50.
0.1 to 200 nM
